# TGT: potassium channels (Sus scrofa)
# PROTOCOL_NOTES: Functional potassium channel opening activity in isolated Landrace pig bladder strips (field-stimulated twitch)
# SETUP_CONDITIONS: negative logarithm of ED50
EXPERIMENTAL_ENDPOINT: Landrace Pig Bladder pD2
Just the number.

See these solved cases before continuing.
COMPOUND: N#Cc1cccc(C2C3=C(CCCC3=O)NC3=C2S(=O)(=O)CC3)c1 (single isomer, unassigned; (-)) [Example 114]
MEASURED: 4.9
--
COMPOUND: O=C1CCCC2=C1C(c1ccc(Br)c(Br)c1)C1=C(CCS1(=O)=O)N2 (single isomer, unassigned)
MEASURED: 6.2
--
COMPOUND: N#Cc1cccc(C2C3=C(CCC3=O)NC3=C2S(=O)(=O)CC3)c1 (single isomer, unassigned; (+)) [Example 164]
MEASURED: 5.0
--
COMPOUND: O=C1CCC2=C1C(c1ccc(F)c(Br)c1)C1=C(CCS1(=O)=O)N2 (single isomer, unassigned; (-)) [Example 86]
MEASURED: 6.5
--
COMPOUND: O=C1CCCC2=C1C(c1ccc(F)c(Br)c1)C1=C(CCCS1(=O)=O)N2 (centres unmarked) [Example 4]
MEASURED: 6.2

[Q] Fill in the blank: the reported Landrace Pig Bladder pD2 of O=S1(=O)CCC2=C1C(c1ccc(F)c(Br)c1)C=C(C(F)(F)F)N2 (centres unmarked) [Example 112] is ____.
[A] 5.7

[Q] What measured Landrace Pig Bladder pD2 goes with O=C1CCC2=C1C(c1ccc(F)c(Br)c1)C1=C(CCCS1(=O)=O)N2 (centres unmarked) [Example 40] ?
[A] 6.9

[Q] So what's the measured Landrace Pig Bladder pD2 for this one? CC1=C(C(=O)O)C(c2ccc(F)c(Br)c2)C2=C(CCS2(=O)=O)N1 (centres unmarked)
[A] 5.1

====

In this section, each of the compounds is paired with its reported melting point.

[Q] I'd like to know its melting point. The compound in question is CC1=C(C(=O)O)C(c2ccc(F)c(Br)c2)C2=C(CCS2(=O)=O)N1 (stereo not drawn)
[A] 220 to 223 °C

[Q] Looking for the measured melting point of O=C1CCC2=C1C(c1ccc(Cl)c([N+](=O)[O-])c1)C1=C(CCS1(=O)=O)N2 (single isomer, unassigned) , can you help?
[A] > 250 °C

[Q] Find the recorded melting point belonging to O=C1CCC2=C1C(c1ccc(F)c(I)c1)C1=C(CCS1(=O)=O)N2 (stereo not drawn) and report it.
[A] > 250 °C

[Q] For the compound shown here, O=C1CCC2=C1C(c1ccc(F)c(C(F)(F)F)c1)C1=C(CCS1(=O)=O)N2 (stereo not drawn) , give the reported melting point.
[A] 254 °C

[Q] So what's the measured melting point for this one? O=C1CCCC2=C1C(c1ccc(F)c(Cl)c1)C1=C(CCS1(=O)=O)N2 (single isomer, unassigned; (+)) [Example 109]
[A] > 250 °C

[Q] Which melting point reading was recorded for the compound CC1=C(C(=O)O)C(c2ccc(F)c(Br)c2)C2=C(CCCS2(=O)=O)N1 (stereo not drawn) ?
[A] 208 to 210 °C

[Q] Would you mind telling me what melting point value was observed for Cc1cc(C2C3=C(CCCC3=O)NC3=C2S(=O)(=O)CC3)ccc1F (stereo not drawn) ?
[A] > 260 °C

[Q] Returns the measured melting point for the input compound. Input: O=C1CCC2=C1C(c1ccc(F)c(F)c1)C1=C(CCS1(=O)=O)N2 (stereo not drawn)
[A] > 260 °C

[Q] I have this compound here, O=C1CCCC2=C1C(c1ccc(F)c(I)c1)C1=C(CCS1(=O)=O)N2 (stereo not drawn) , and I need its recorded melting point.
[A] > 250 °C

[Q] Which value of melting point has been reported for O=S1(=O)CCC2=C1C(c1ccc3nonc3c1)C1=C(CCS1(=O)=O)N2 in the records?
[A] > 260 °C

[Q] If you can, please state the reported melting point value of O=C1CCC2=C1C(c1cccc(Br)c1)C1=C(CCS1(=O)=O)N2 (stereo not drawn) .
[A] 246 °C

[Q] Name the reported melting point value associated with the compound CC1(C)CCC2=C(C1=O)C(c1ccc(Cl)c(Cl)c1)C1=C(CCS1(=O)=O)N2 (stereo not drawn)
[A] 262 to 265 °C (dec.)

[Q] Would you mind telling me what melting point value was observed for CC1=C(S(C)(=O)=O)C(c2ccc(Cl)c([N+](=O)[O-])c2)C2=C(CCC2=O)N1 (stereo not drawn) ?
[A] 232 °C

[Q] Quick one: melting point of N#Cc1cccc(C2C3=C(CCC3=O)NC3=C2S(=O)(=O)CC3)c1 (stereo not drawn) [Example 52] ?
[A] 156 to 176 °C

[Q] melting point lookup needed for O=C1CCC2=C1C(c1cc(Br)cs1)C1=C(CCS1(=O)=O)N2 (stereo not drawn) , thanks.
[A] 254 to 255 °C

[Q] // lookup melting point for O=C1CCCC2=C1C(c1cc(Cl)ccc1O)C1=C(CCS1(=O)=O)N2 (stereo not drawn)
[A] > 250 °C

[Q] GET /values?readout=melting point&item= O=S1(=O)CCC2=C1C(c1ccc(Cl)c(C(F)(F)F)c1)C1=C(CCS1(=O)=O)N2
[A] > 260 °C

[Q] Can you look up the measured melting point of CC1(C)CCC(=O)C2=C1NC1=C(C2c2ccc(F)c(Br)c2)S(=O)(=O)CC1 (stereo not drawn) for me?
[A] > 270 °C

[Q] May I ask what melting point has been recorded for O=C1CCC2=C1C(c1ccc([N+](=O)[O-])s1)C1=C(CCS1(=O)=O)N2 (stereo not drawn) ?
[A] 251 to 254 °C

====

# reported Landrace Pig Bladder pD2; entries follow
# TGT: potassium channels (Sus scrofa, UniProt F1SR11)
# PROTOCOL_NOTES: Functional potassium channel opening activity in isolated Landrace pig bladder strips (field-stimulated twitch)
# SETUP_CONDITIONS: negative logarithm of ED50
Answer field: number only, no words.

COMPOUND: CC1=C(C(=O)O)C(c2ccc(F)c(Br)c2)C2=C(CCCS2(=O)=O)N1 (stereo not drawn) [Example 107]
MEASURED: 5.2
//
COMPOUND: O=C1CCCC2=C1[C@H](c1ccc(F)c(Br)c1)C1=C(CCS1(=O)=O)N2 [Example 84]
MEASURED: 6.8

[Q] Write down the reported Landrace Pig Bladder pD2 of O=C1CCC2=C1C(c1ccc(Cl)c([N+](=O)[O-])c1)C1=C(CCS1(=O)=O)N2 (stereo not drawn) [Example 44] , test system: potassium channels (Sus scrofa, UniProt F1SR11).
[A] 6.2

====

The entries below come with measured melting point values attached.

These solved cases illustrate the format of a correct answer.
COMPOUND: O=C1CCCC2=C1C(c1ccncc1)C1=C(CCS1(=O)=O)N2 (centres unmarked)
melting point: > 250 °C
//
COMPOUND: O=C1CCCC2=C1C(c1ccc(F)c(C(F)(F)F)c1)C1=C(CCS1(=O)=O)N2 (single isomer, unassigned; (+))
melting point: > 250 °C
//
COMPOUND: O=S1(=O)CCC2=C1C(c1ccc(F)c(C(F)(F)F)c1)C1=C(CCS1(=O)=O)N2
melting point: > 260 °C
//
COMPOUND: O=C1CCC2=C1C(c1ccc(F)c(Br)c1)C1=C(CCS1(=O)=O)N2 (centres unmarked)
melting point: > 260 °C

[Q] Fill blank: measured melting point of the compound O=S1(=O)CCC2=C1C(c1ccc(F)c(Cl)c1)C1=C(CCS1(=O)=O)N2 is ____.
[A] > 260 °C

Taken from patent US6593335B1.
